Hey, just so you know, these numbers are from patent US20140228277A1.

- targetOrSystem: recombinant human BACE1 (rhBACE1) (human, UniProt P56817 22-457, limits assumed)
- Sequence (P56817 22-457 limits assumed): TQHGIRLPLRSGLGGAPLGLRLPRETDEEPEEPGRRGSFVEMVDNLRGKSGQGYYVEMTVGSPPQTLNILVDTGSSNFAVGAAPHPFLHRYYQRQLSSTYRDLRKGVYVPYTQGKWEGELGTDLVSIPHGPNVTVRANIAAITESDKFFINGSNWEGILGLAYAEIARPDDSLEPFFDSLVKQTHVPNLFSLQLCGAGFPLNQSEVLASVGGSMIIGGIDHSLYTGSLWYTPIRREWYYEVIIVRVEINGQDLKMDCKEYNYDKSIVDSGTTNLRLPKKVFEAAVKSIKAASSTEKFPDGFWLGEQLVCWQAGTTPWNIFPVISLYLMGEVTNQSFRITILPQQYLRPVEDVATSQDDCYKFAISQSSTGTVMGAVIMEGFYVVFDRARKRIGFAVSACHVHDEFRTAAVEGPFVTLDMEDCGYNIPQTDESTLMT
- testDetails: cell-based or functional assay
Positions of bridges follow the written chain, without caps; N, C: chain ends.
Known HTRF BACE1 activity assay IC50 of a selection of binders
quantityMeasured: HTRF BACE1 activity assay IC50 (nM)

binder | val
Ac-NEESMYCRLLGIGCG-NH2 (disulfide 7-14; SMILES CC[C@H](C)[C@@H]1NC(=O)CNC(=O)[C@H](CC(C)C)NC(=O)[C@H](CC(C)C)NC(=O)[C@H](CCCNC(=N)N)NC(=O)[C@@H](NC(=O)[C@H](Cc2ccc(O)cc2)NC(=O)[C@H](CCSC)NC(=O)[C@H](CO)NC(=O)[C@H](CCC(=O)O)NC(=O)[C@H](CCC(=O)O)NC(=O)[C@H](CC(N)=O)NC(C)=O)CSSC[C@@H](C(=O)NCC(N)=O)NC(=O)CNC1=O, also called BACE20; BACE-20) [BACE020] | 12
Ac-PEESLYCRLLALGCG-NH2 (disulfide 7-14 (inferred), also called BACE-21) [BACE021] | 22
Ac-NELSPYCRLMGLGCD-NH2 (disulfide 7-14 (inferred), also called BACE-19) [BACE019] | 10
Ac-KEESIYCRLMGLGCG-NH2 (disulfide 7-14 (inferred), also called BACE-18) [BACE018] | 77
